Source listed as patent US8586588B2.

systemUnderTest: human H3 receptor (Homo sapiens, UniProt Q9Y5N1)
Construct: expressed in transfected cells
Sequence (Q9Y5N1 whole entry): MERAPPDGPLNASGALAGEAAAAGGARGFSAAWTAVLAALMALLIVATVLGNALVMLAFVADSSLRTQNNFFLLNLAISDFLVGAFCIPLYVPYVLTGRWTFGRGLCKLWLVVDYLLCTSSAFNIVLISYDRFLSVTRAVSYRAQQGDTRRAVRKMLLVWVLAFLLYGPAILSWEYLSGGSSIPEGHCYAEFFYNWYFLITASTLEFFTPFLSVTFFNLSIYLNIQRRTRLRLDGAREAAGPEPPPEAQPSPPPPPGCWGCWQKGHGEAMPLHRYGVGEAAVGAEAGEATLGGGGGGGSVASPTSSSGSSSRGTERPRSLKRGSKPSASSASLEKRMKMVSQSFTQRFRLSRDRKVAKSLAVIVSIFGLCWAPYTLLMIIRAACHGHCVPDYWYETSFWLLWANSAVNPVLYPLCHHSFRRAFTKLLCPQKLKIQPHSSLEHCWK
measurementDescription: Human H3 radioligand binding ([3H]-N-alpha-methylhistamine, CHO cell membranes, SPA)
conditionsUsed: Table B, binding constant as letter class
property: Ki

Some solved entries appear below for comparison.
| molecule | Ki |
| --- | --- |
| CCc1cc(=O)[nH]nc1-c1ccc(OCCCN2CCC[C@H]2C)cc1 | 0.1 to 100 nM |
| Cc1nn(C)c(=O)cc1-c1ccc(OCCCN2CCCCC2)cc1 | 0.1 to 100 nM |

Value wanted: Ki (human H3 receptor (Homo sapiens, UniProt Q9Y5N1)) of entry C[C@@H](COc1ccc(-c2cn[nH]c(=O)c2)cc1)CN1CCCCC1
0.1 to 100 nM

# value lookup — system human H3 receptor (Homo sapiens, UniProt Q9Y5N1), readout Ki, item COCn1ncc(-c2ccc(OCCCN3CCC[C@H]3C)cc2)c(OC)c1=O
0.1 to 100 nM

// lookup Ki | system=human H3 receptor (Homo sapiens, UniProt Q9Y5N1) | key= C[C@@H]1CCCN1CCCOc1ccc(C2=NNC(=O)CC2c2ccccn2)cc1 (stereo partly drawn)
0.1 to 100 nM

* * *

systemUnderTest: rat histamine H3 receptor (Rattus norvegicus, UniProt Q9QYN8)
Construct: encoding the entire 445-amino-acid rat histamine H3 receptor; expressed in transfected cells
Sequence (Q9QYN8 whole entry): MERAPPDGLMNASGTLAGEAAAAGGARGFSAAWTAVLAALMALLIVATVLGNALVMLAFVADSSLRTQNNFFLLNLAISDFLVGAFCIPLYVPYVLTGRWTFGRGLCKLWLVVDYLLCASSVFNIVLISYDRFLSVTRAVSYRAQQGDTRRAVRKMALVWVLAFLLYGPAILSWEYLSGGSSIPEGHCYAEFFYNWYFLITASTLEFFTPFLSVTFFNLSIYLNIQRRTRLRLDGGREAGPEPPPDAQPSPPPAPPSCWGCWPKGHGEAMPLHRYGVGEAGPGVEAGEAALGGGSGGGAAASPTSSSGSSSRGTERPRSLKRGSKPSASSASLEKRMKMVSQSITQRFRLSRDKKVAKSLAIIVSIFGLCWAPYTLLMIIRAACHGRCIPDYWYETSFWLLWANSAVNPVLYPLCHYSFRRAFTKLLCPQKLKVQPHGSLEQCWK
measurementDescription: Rat H3 radioligand binding ([3H]-N-alpha-methylhistamine, CHO-A3 cell membranes, SPA)
conditionsUsed: Table B, binding constant as letter class; read-out: rat H3 Ki
property: Ki

| molecule | Ki |
| --- | --- |
| C[C@@H]1CCCN1CCCOc1ccc(C2=NN(CC(F)(F)F)C(=O)CC2)cc1 | 0.1 to 100 nM |
| C[C@@H]1CCCN1CCCOc1ccc(-n2nc(-c3ccccc3)ccc2=O)cc1 | 0.1 to 100 nM |
| C[C@@H]1CCCN1CCCOc1ccc(-c2ccc(=O)[nH]n2)cc1C#N | 101 to 500 nM |
| O=c1ccc(-c2ccc(OCCCN3CCCCC3)c(F)c2)n[nH]1 | 101 to 500 nM |
| O=c1ccc(-c2ccc(OC3CCN(C4CCC4)CC3)nc2)n[nH]1 | 0.1 to 100 nM |
| C[C@@H]1CCCN1CCCOc1ccc(C2=NNC(=O)CC2)cc1F | 0.1 to 100 nM |
| O=C1CCC(c2ccc(OC3CCNCC3)cc2)=NN1C1CCC1 | > 1000 nM |
| O=c1ccc(-c2ccc(OCCCN3CCCCC3)nc2)n[nH]1 | 101 to 500 nM |

Turning to the following molecule.
Form entry - test system: rat histamine H3 receptor (Rattus norvegicus, UniProt Q9QYN8); read-out: Ki; molecule: CC(C)N1N=C(c2ccc(OC3CCN(C4CCC4)CC3)cc2)C2CC2C1=O (stereo not drawn)
0.1 to 100 nM

* * *

Where a name gives a salt, the structure may show the parent alone.
Below, each entry is listed with its recorded melting point.

Below are worked cases with known answers.
| molecule | melting point |
| --- | --- |
| C[C@@H]1CCCN1C[C@H](O)COc1ccc(-c2ccc(=O)[nH]n2)cc1 | 156 °C |
| Cc1onc2c(=O)[nH]nc(-c3ccc(OCCCN4CCCCC4)cc3)c12 | 178 to 179 °C |
| O=c1ccc(-c2ccc(OCCCN3CCCCC3)c(F)c2)nn1-c1ccccc1 (as salt: HCl) | 230 to 232 °C |
| Cn1nc(-c2ccc(OCC3CCN(CC4CC4)CC3)cc2)ccc1=O (as salt: HCl) | 230 to 231 °C |

# input for lookup
Return reported melting point; argument: O=C1CCC(c2ccc(OC3CCN(C4CCC4)CC3)cc2F)=NN1 (as salt: HCl)
> 300 °C

* * *

Structures can show the parent of a compound that is named as a salt.
The following compounds are shown together with reported melting point values.

Please review the entries below; each comes with its answer.
| compound | melting point |
| --- | --- |
| O=c1ccc(-c2ccc(OC3CCN(C4CCC4)CC3)c(F)c2)n[nH]1 [Example 156] | 236 to 238 °C |
| CCc1cc(=O)[nH]nc1-c1ccc(OCCCN2CCC[C@H]2C)cc1 [Example 211] | 272 to 275 °C |
| CCC1CC(=O)NN=C1c1ccc(OC2CCN(C3CCC3)CC2)cc1 (centres unmarked) [Example 192] | 152 to 154 °C |
| CC1CC(=O)NN=C1c1ccc(OCCCN2CCCC2)cc1 (racemic) (as salt: HCl) [Example 198] | 161 to 163 °C |
| CC(C)N1CCC(Oc2ccc(-c3ccc(=O)n(C)n3)cc2)CC1 (as salt: HCl) [Example 72] | 108 to 110 °C |

Which melting point value is on record for O=c1ccc(-c2ccc(OC[C@H](O)CN3CCCCC3)cc2)n[nH]1 [Example 259] ?
167 °C

Item C[C@@H]1CCCN1CCCOc1ccc(-n2nc(-c3cccnc3)ccc2=O)cc1 [Example 204] has what recorded melting point?
87 to 90 °C

Which melting point is listed for Cn1nc(-c2ccc(OCCCN3CCCCC3)cc2)c(-c2ccccc2)cc1=O (as salt: HCl) [Example 48] ?
212 to 214 °C

State the recorded melting point for this entry: CC1CC(=O)NN=C1c1ccc(OCCCN2CCC[C@H]2C)cc1 (mixture of isomers) (as salt: HCl) [Example 194]
169 to 171 °C

What value of measured melting point is listed for COCn1ncc(-c2ccc(OC3CCN(C4CCC4)CC3)cc2C)cc1=O (as salt: HCl) [Example 234] ?
119.5 to 123.5 °C

Would you kindly share the measured melting point for COCn1ncc(-c2ccc(OCCCN3CCC[C@H]3C)cc2C)cc1=O (as salt: HCl) [Example 230] ?
139 to 140.5 °C

So what's the measured melting point for this one? C[C@H](COc1ccc(-c2cn[nH]c(=O)c2)cc1)CN1CCC[C@H]1C [Example 225]
154 to 156 °C

melting point lookup needed for Cc1cc(-c2ccc(OCCCN3CCC[C@H]3C)cc2)nn(Cc2ccccc2)c1=O (as salt: HCl) [Example 43] , thanks.
190 to 192 °C

Requested read-out: melting point. Entry: O=c1ccc(-c2ccc(OC3CCN(C4CCC4)CC3)nc2)n[nH]1 [Example 141]
217 to 219 °C

Recorded melting point of Cn1nc(-c2ccc(OCC3CCN(C4CCC4)CC3)cc2)c2ccccc2c1=O (as salt: HCl) [Example 64] , please.
256 to 257 °C

Data request, read-out melting point, for CC(C)n1nc(-c2ccc(OCCCN3CCCC3)cc2)c2sccc2c1=O (as salt: HCl) [Example 29]
144 °C

Could you tell me which melting point is on file for C[C@@H]1CCCN1CCCOc1c(Br)cc(-c2cn[nH]c(=O)c2)cc1Br [Example 229] ?
175 to 180 °C

* * *

Where a name gives a salt, the structure may show the parent alone.
property: melting point

| compound | melting point |
| --- | --- |
| Cn1nc(-c2ccc(OC3CCN(C4CCCC4)CC3)cc2)ccc1=O [Example 83] | 129 to 132 °C |
| Cn1nc(-c2ccc(OCC3CCNCC3)cc2)ccc1=O (as salt: HCl) [Example 66] | 249 to 251 °C |
| Cc1nn(C)c(=O)cc1-c1ccc(OCCCN2CCC[C@H]2C)cc1 (as salt: HCl) [Example 86] | 176 to 178 °C |
| CC1CCC(C)N1CCCOc1ccc(-c2nn(C(C)C)c(=O)c3ccsc23)cc1 (centres unmarked) (as salt: HCl) [Example 23] | 158 to 159 °C |

Need melting point, item O=c1ccc(-c2cc(F)c(OC3CCN(C4CCC4)CC3)c(F)c2)n[nH]1 [Example 188]
195 to 197 °C

Reported melting point for CN(CCCOc1ccc(-c2ccc(=O)[nH]n2)cc1)C1CCC1 [Example 241] : what is it?
< 50 °C

May I ask what melting point has been recorded for O=C1CCC(c2cc(F)c(OC3CCN(C4CCC4)CC3)c(F)c2)=NN1 [Example 187] ?
162 to 164 °C

For the compound shown here, C[C@@H]1CCCN1C[C@@H](O)COc1ccc(-c2ccc(=O)[nH]n2)cc1 [Example 258] , give the reported melting point.
147 °C

Entry CN1CCC(COc2ccc(-c3ccc(=O)n(C)n3)cc2)CC1 (as salt: HCl) [Example 71] : reported melting point = ?
257 to 258 °C

Return reported melting point; argument: Cc1cc(OCCCN2CCCCC2)ccc1-c1cn[nH]c(=O)c1 [Example 233]
112 to 113 °C

* * *

systemUnderTest: human H3 receptor (Homo sapiens, UniProt Q9Y5N1)
Construct: expressed in transfected cells
measurementDescription: Human H3 radioligand binding ([3H]-N-alpha-methylhistamine, CHO cell membranes, SPA)
conditionsUsed: Table B, binding constant as letter class
Ki values by entry

What value of Ki has been recorded for this entry: Cc1n[nH]c(=O)cc1-c1ccc(OCCCN2CCCCCC2)cc1
0.1 to 100 nM

Need Ki, item CC1CC(=O)NN=C1c1ccc(OCCCN2CCCCC2)cc1 (racemic)
0.1 to 100 nM

Sample O=C1NN=C(c2ccc(OC3CCN(C4CCCC4)CC3)cc2)C2CC12 (stereo not shown) — what was its Ki?
0.1 to 100 nM

# input compound: Cn1nc(-c2ccc(OC3CCN(C4CCC4)CC3)nc2)ccc1=O ; wanted: its Ki
0.1 to 100 nM

Requested field: Ki. Item: COc1cc(OCCCN2CCC[C@H]2C)ccc1-c1ccc(=O)[nH]n1
101 to 500 nM

Suppose we examine the compound COCn1ncc(-c2ccc(OCCCN3CCC[C@H]3C)cc2C)cc1=O ; what Ki value has been reported?
0.1 to 100 nM

// query Ki value for entry CC1CC(=O)N(c2ccccn2)N=C1c1ccc(OC2CCN(C3CCC3)CC2)cc1 (stereo not shown)
0.1 to 100 nM
